Source: PubChem BioAssay AID1963849

Tested on: 299254-011-R-J1-PDC complex spheroid viability;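 note: spheroids exposed to drugs for one week before measurement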
assay_details: Anticancer human tumor 299254-011-R-J1-PDC patient-derived melanoma cell line growth inhibition [POLQ]
study_conditions: curve of first compound; second compound 3.16 µM
measurement_kind: IC50

Below, each entry is followed by its recorded IC50 result.
1. CC(C)n1c(=O)n(C)c2cnc3cc(F)c(-c4ccc(OCCCN5CCCCC5)nc4)cc3c21 + Nc1ccc(C#CCN(C(=O)Cc2ncc(C(F)(F)F)cc2C(F)(F)F)c2ccc(F)cc2)nn1; > 10 µM
2. O=C(c1cc(Cc2n[nH]c(=O)c3ccccc23)ccc1F)N1CCN(C(=O)C2CC2)CC1 + COC1C(OC(N)=O)C(O)C(Oc2ccc3c(O)c(NC(=O)c4ccc(O)c(CC=C(C)C)c4)c(=O)oc3c2C)OC1(C)C; > 10 µM
3. CCCS(=O)(=O)Nc1ccc(F)c(C(=O)c2c[nH]c3ncc(-c4ccc(Cl)cc4)cc23)c1F + Nc1ccc(C#CCN(C(=O)Cc2ncc(C(F)(F)F)cc2C(F)(F)F)c2ccc(F)cc2)nn1; > 10 µM
4. COc1ccc([C@@H](O)c2cc(-c3ncnc4cc(N5CCOCC5)ccc34)c(F)cc2Cl)nn1 + Cc1cccc(N(C)C(=O)C2C(O)CCN2c2nc(C)cc(C(F)(F)F)c2C#N)c1; 6.8 µM
5. CCc1cc2c(N3CCc4c(cc(Cn5ccnc5)cc4-c4cn(C)nc4C(F)(F)F)C3=O)cc(C)nc2c(OC)n1 + Nc1ccc(C#CCN(C(=O)Cc2ncc(C(F)(F)F)cc2C(F)(F)F)c2ccc(F)cc2)nn1; > 10 µM
6. CC1COCCN1c1cc(-c2ccnn2C)c2ccnc(-c3ccn[nH]3)c2n1 (stereo unspecified) + Cc1cccc(N(C)C(=O)C2C(O)CCN2c2nc(C)cc(C(F)(F)F)c2C#N)c1; 0.158 µM

[in] # lookup: IC50 of Cn1ncnc1[C@H]1c2n[nH]c(=O)c3cc(F)cc(c23)N[C@@H]1c1ccc(F)cc1 + Cc1cccc(N(C)C(=O)C2C(O)CCN2c2nc(C)cc(C(F)(F)F)c2C#N)c1
[out] > 0.1 µM

[in] Requested read-out: IC50. Entry: CNCc1ccc(-c2[nH]c3cc(F)cc4c3c2CCNC4=O)cc1 + Cc1cccc(N(C)C(=O)C2C(O)CCN2c2nc(C)cc(C(F)(F)F)c2C#N)c1
[out] > 10 µM

[in] What value of IC50 has been reported for the following compound? O=c1[nH]cc(F)c(=O)[nH]1 + Nc1ccc(C#CCN(C(=O)Cc2ncc(C(F)(F)F)cc2C(F)(F)F)c2ccc(F)cc2)nn1
[out] > 10 µM

[in] What value of IC50 has been reported for the following compound? COc1cc2cc(C(=O)CCC(=O)O)sc2cc1OC + Cc1cccc(N(C)C(=O)C2C(O)CCN2c2nc(C)cc(C(F)(F)F)c2C#N)c1
[out] > 10 µM

[in] IC50 lookup needed for COc1cccc(OCCCN)c1-c1cc(Nc2cnc(C#N)cn2)n[nH]1 + Nc1ccc(C#CCN(C(=O)Cc2ncc(C(F)(F)F)cc2C(F)(F)F)c2ccc(F)cc2)nn1 , thanks.
[out] 0.0706 µM
